# System: HRV16
# Procedure details: HRV16 HELA EC50 (cytopathic effect in H1-HeLa cells)
# Type: cell-based
# Cond: 96 h, H1-HeLa cells, 33° C., read-out: HRV16 HELA EC50
EC50 values for the compounds below.
The figure you give is taken to be in µM; do not add the unit.

Reference set (2 entries):
compound="CC(C)OC(=O)[C@H](C)N[P@](=O)(OC[C@@]1(C#N)O[C@@H](c2ccc3c(N)ncnn23)[C@H](OC(=O)C(C)C)[C@@H]1O)Oc1ccccc1 (single isomer, unassigned)" reported_property=EC50 quantitative_readout=1.31
compound=CCCC(=O)Nc1ncnn2c([C@@H]3O[C@](C#N)(CO[P@@](=O)(N[C@@H](C)C(=O)OC4CCCCC4)Oc4ccccc4)[C@@H](O)[C@H]3O)ccc12 reported_property=EC50 quantitative_readout=1.2

Please supply the value of reported EC50 for the item C[C@H](NP(=O)(OC[C@@]1(C#N)O[C@@H](c2ccc3c(N)ncnn23)[C@H](O)[C@@H]1O)Oc1ccccc1)C(=O)O[C@H]1CCN(C)C1 (stereo partly shown)
11.4

Quote EC50 reported for CCC(CC)OC(=O)[C@H](C)NP(=O)(OC[C@@]1(C#N)O[C@@H](c2ccc3c(N)ncnn23)[C@H](O)[C@@H]1O)Oc1ccccc1 (stereo partly shown) please.
3.13

Let me know recorded EC50 for C[C@H](NP(=O)(OC[C@@]1(C#N)O[C@@H](c2ccc3c(N)ncnn23)[C@H](O)[C@@H]1O)Oc1ccccc1)C(=O)OCc1ccccc1 (stereo partly shown) , thanks.
0.329

Could you please provide reported EC50 for CC(C)[C@H](N)C(=O)OCCNP(=O)(OC[C@@]1(C#N)O[C@@H](c2ccc3c(N)ncnn23)[C@H](O)[C@@H]1O)Oc1ccccc1 (stereo partly shown) ? Thanks!
1.81

---

# Test system: RSV strain A2
# Procedure details: RSV HEp-2 EC50 (infectious cytopathic cell protection assay)
# Assay type: cell-based
# Cond: human respiratory syncytial virus, HEp-2, 96 h, HEp-2 cells, RSV A2, 4 days; read-out: RSV HEp-2 EC50
Reported property: pEC50
In simple prose, pEC50 is minus the logarithm base ten of a concentration in moles per litre.

Give the value of pEC50 reported for the following: C[C@H](NP(=O)(OC[C@@]1(C#N)O[C@@H](c2ccc3c(N)ncnn23)[C@H](O)[C@@H]1O)Oc1ccccc1)C(=O)OCC1COC1 (some centres unmarked)
5.97

Check the records and state pEC50 for CC(C)C(=O)O[C@H]1[C@@H](O)[C@H](c2ccc3c(N)ncnn23)O[C@]1(C#N)CO[P@@](=O)(N[C@@H](C)C(=O)OC1CCCCC1)Oc1ccccc1 (single isomer, unassigned)
7.07

---

# Test system: HRV16
# Procedure details: HRV16 HELA EC50 (cytopathic effect in H1-HeLa cells)
# Type: cell-based
# Cond: 96 h, H1-HeLa cells, 33° C., read-out: HRV16 HELA EC50
Sorting guide: entries reporting EC50 beneath 1000 nM go in the True pile, the rest go in the False pile.

compound="CC[C@H](NP(=O)(OC[C@@]1(C#N)O[C@@H](c2ccc3c(N)ncnn23)[C@H](O)[C@@H]1O)Oc1ccccc1)C(=O)OC1CCCCC1 (mixture of isomers) [Example 103]" qualitative_label=False

Please let me know if C[C@H](NP(=O)(OC[C@@]1(C#N)O[C@@H](c2ccc3c(N)ncnn23)[C@H](O)[C@@H]1O)Oc1ccccc1)C(=O)OC1CCC1 (single isomer, unassigned) [Example 50] shows EC50 below 1000 nM.
True

Please check: EC50 for C[C@H](N[P@](=O)(OC[C@@]1(C#N)O[C@@H](c2ccc3c(N)ncnn23)[C@H](O)[C@@H]1O)Oc1ccccc1)C(=O)O[C@H]1CC[C@H](C(F)(F)F)CC1 (single isomer, unassigned) [Example 18] , strictly under 1000 nM or not?
True

Could you please tell me whether EC50 recorded for CCC(CC)COC(=O)[C@H](C)N[P@@](=O)(OC[C@@]1(C#N)O[C@@H](c2ccc3c(N)ncnn23)[C@H](O)[C@@H]1O)Oc1ccccc1 (single isomer, unassigned) [Example 207] is less than 1000 nM?
True

Hi there! Is EC50 for N#C[C@]1(COP(=O)(N[C@H](C(=O)OCC2CC2)C2CCCCC2)Oc2ccccc2)O[C@@H](c2ccc3c(N)ncnn23)[C@H](O)[C@@H]1O (stereo partly drawn) [Example 121] below 1000 nM, do you know?
False

Is the reported EC50 for COC(=O)[C@H](C)NP(=O)(OC[C@@]1(C#N)O[C@@H](c2ccc3c(N)ncnn23)[C@H](O)[C@@H]1O)Oc1ccccc1 (stereo partly drawn) [Example 39] strictly below 1000 nM?
False

---

# Measurement target: HCV replicon 1B
# Procedure details: HCV Rep 1B EC50 (replicon luciferase)
# Format: cell-based
# Cond: replicon cells, 3 days; read-out: HCV Rep 1B EC50
Reported property: EC50

See these solved cases before continuing.
compound="CCC(CC)COC(=O)[C@H](C)NP(=O)(N[C@@H](C)C(=O)OC1CCCCC1)OC[C@@]1(C#N)O[C@@H](c2ccc3c(N)ncnn23)[C@H](O)[C@@H]1O (single isomer, unassigned)" result="10.2 µM"
compound="CC(NP(=O)(OCC1(C#N)OC(c2ccc3c(N)ncnn23)C(O)C1O)Oc1ccccc1)C(=O)OC1CCOC1 (single isomer, unassigned) [Example 69]" result="25.3 µM"
compound="COCCCOC(=O)[C@H](C)NP(=O)(OC[C@@]1(C#N)O[C@@H](c2ccc3c(N)ncnn23)[C@H](O)[C@@H]1O)Oc1ccccc1 (single isomer, unassigned)" result="6.08 µM"
compound="CC(NP(=O)(OCC1(C#N)OC(c2ccc3c(N)ncnn23)C(O)C1O)Oc1ccccc1)C(=O)OC1CCOC1 (single isomer, unassigned) [Example 70]" result="9.43 µM"

Now take the following compound into account.
Give the reported value of EC50 for this record: "C[C@H](N[P@](=O)(OC[C@@]1(C#N)O[C@@H](c2ccc3c(N)ncnn23)[C@H](O)[C@@H]1O)Oc1ccccc1)C(=O)OCC(C)(C)C"
0.278 µM

---

# Test system: HRV16
# Procedure details: HRV16 HELA EC50 (cytopathic effect in H1-HeLa cells)
# Type: cell-based
# Cond: 96 h, H1-HeLa cells, 33° C., read-out: HRV16 HELA EC50
Reported property: EC50 (µM)
Just the number please, in µM, no unit attached.

A selection of reference data follows.
compound="CC(C)C[C@H](NP(=O)(OC[C@@]1(C#N)O[C@@H](c2ccc3c(N)ncnn23)[C@H](O)[C@@H]1O)Oc1ccccc1)C(=O)OCC1CC1 (mixture of isomers) [Example 130]" quantitative_readout=7.3
compound="CCCCCCCCCCCC(=O)Nc1ncnn2c([C@@H]3O[C@](C#N)(CO[P@@](=O)(N[C@@H](C)C(=O)OC4CCCCC4)Oc4ccccc4)[C@@H](O)[C@H]3O)ccc12 [Example 232]" quantitative_readout=0.479

Then there is this compound:
Please give measured EC50 of the following entry: C[C@H](NP(=O)(OC[C@@]1(C#N)O[C@@H](c2ccc3c(N)ncnn23)[C@H](O)[C@@H]1O)Oc1ccccc1)C(=O)OC1CCOCC1 (single isomer, unassigned) [Example 56]
7.96

---

# Tested on: HRV16
# Procedure details: HRV16 HELA EC50 (cytopathic effect in H1-HeLa cells)
# Assay type: cell-based
# Cond: 96 h, H1-HeLa cells, 33° C., read-out: HRV16 HELA EC50
Reported property: EC50 (nM)
// units = nM; emit number, no label

molecule="C[C@H](NP(=O)(OC[C@@]1(C#N)O[C@@H](c2ccc3c(N)ncnn23)[C@H](O)[C@@H]1O)Oc1ccccc1)C(=O)OC[C@H]1CC[C@H](C(F)(F)F)CC1 (mixture of isomers)" quantitative_readout=669
molecule="C[C@H](NP(=O)(OC[C@@]1(C#N)O[C@@H](c2ccc3c(N)ncnn23)[C@H](O)[C@@H]1O)Oc1cccc2ccccc12)C(=O)OC1CCCCC1 (some centres unmarked)" quantitative_readout=72
molecule="CCC(CC)COC(=O)[C@H](CC1CC1)NP(=O)(OC[C@@]1(C#N)O[C@@H](c2ccc3c(N)ncnn23)[C@H](O)[C@@H]1O)Oc1ccccc1 (some centres unmarked)" quantitative_readout=22400

# evaluate next
State its EC50 for this molecule: CC(C)C(=O)O[C@H]1[C@H](c2ccc3c(N)ncnn23)O[C@](C#N)(CO[P@@](=O)(N[C@@H](C)C(=O)OC2CCCCC2)Oc2ccccc2)[C@H]1O (single isomer, unassigned)
417

---

Each record here notes measured pEC50.
# System: RSV A2
# Procedure details: RSV NHBE EC50 (RSV A2 antiviral assay in normal human bronchial epithelial cells)
# Format: cell-based
# Cond: human respiratory syncytial virus, NHBE, in Homo sapiens, 96 h, NHBE cells, RSV A2, 4 days; read-out: RSV NHBE EC50
pEC50: −log10 of the molar value.

molecule="C[C@H](NP(=O)(OC[C@@]1(C#N)O[C@@H](c2ccc3c(N)ncnn23)[C@H](O)[C@@H]1O)Oc1ccccc1)C(=O)OC1CCN(C)CC1 (some centres unmarked)" result="< 5.30"

// moving on: another record for pEC50
Report measured pEC50 on RSV A2; entry: COCCOc1ccc(OP(=O)(N[C@@H](C)C(=O)OC(C)C)OC[C@@]2(C#N)O[C@@H](c3ccc4c(N)ncnn34)[C@H](O)[C@@H]2O)cc1 (some centres unmarked)
≤ 5.30
